Origin of values: ChEMBL document CHEMBL5385861

- Measurement notes: Acute toxicity in ICR mouse assessed as animal survival at 300 mg/kg, ip measured for 2 weeks
- Type: organism-based
- Measurement parameters: in vivo
Property name: survival at 336 h (%)
Lab book: enter the figure in %, no units written.

(Q) Return reported survival at 336 h; argument: CN1CCN(c2ccc(Nc3ncc(F)c(Nc4ccccc4C(=O)NN)n3)cc2)CC1
(A) 60

----------
- System: P-glycoprotein
- Measurement notes: in vitro
- Measurement parameters: human, Caco-2
- Description: Efflux ratio of apparent permeability across basolateral to apical side over apical to basolateral side in human Caco-2 cells incubated for 120 mins in presence of P-glycoprotein by LC-MS/MS analysis
# efflux ratio at 2 h per record follows

Molecule: CC(C)NCC(O)COc1cccc2ccccc12 (stereo not drawn)
Value: 0.62

(Q) Return reported efflux ratio at 2 h; argument: CN1CCN(c2ccc(Nc3ncc(F)c(Nc4ccccc4C(=O)NN)n3)cc2)CC1
(A) 2.64

(Q) Return reported efflux ratio at 2 h; argument: C[C@H]1O[C@@H](O[C@H]2[C@@H](O)C[C@H](O[C@H]3[C@@H](O)C[C@H](O[C@H]4CC[C@@]5(C)[C@H](CC[C@@H]6[C@@H]5C[C@@H](O)[C@]5(C)[C@@H](C7=CC(=O)OC7)CC[C@]65O)C4)O[C@@H]3C)O[C@@H]2C)C[C@H](O)[C@@H]1O
(A) 44.1

----------
# Papp B→A at 2 h per record follows
- Measurement notes: in vitro
- Measurement parameters: human, Caco-2
- Description: Apparent permeability across basolateral to apical side in human Caco-2 cells incubated for 120 mins by LC-MS/MS analysis
Lab book: enter the figure in ×10⁻⁶ cm/s, no units written.

Compound: CN1CCN(c2ccc(Nc3ncc(F)c(Nc4ccccc4C(=O)NN)n3)cc2)CC1
Unit symbol: ×10⁻⁶ cm/s
Value: 13.5

Compound: C[C@H]1O[C@@H](O[C@H]2[C@@H](O)C[C@H](O[C@H]3[C@@H](O)C[C@H](O[C@H]4CC[C@@]5(C)[C@H](CC[C@@H]6[C@@H]5C[C@@H](O)[C@]5(C)[C@@H](C7=CC(=O)OC7)CC[C@]65O)C4)O[C@@H]3C)O[C@@H]2C)C[C@H](O)[C@@H]1O
Unit symbol: ×10⁻⁶ cm/s
Value: 11.2

(Q) Return reported Papp B→A at 2 h; argument: CC(C)NCC(O)COc1cccc2ccccc12 (stereo not drawn)
(A) 20.1

----------
- Measurement notes: Acute toxicity in ICR mouse assessed as animal survival at 468.8 mg/kg, ip measured for 2 weeks
- Format: organism-based
- Measurement parameters: in vivo
Property name: survival at 336 h (%)
Lab book: enter the figure in %, no units written.

(Q) Return reported survival at 336 h; argument: CN1CCN(c2ccc(Nc3ncc(F)c(Nc4ccccc4C(=O)NN)n3)cc2)CC1
(A) 10

----------
Dear all, this message contains pIC50 results, target or system UniProtKB Q06187.
Sequence (Q06187 whole entry): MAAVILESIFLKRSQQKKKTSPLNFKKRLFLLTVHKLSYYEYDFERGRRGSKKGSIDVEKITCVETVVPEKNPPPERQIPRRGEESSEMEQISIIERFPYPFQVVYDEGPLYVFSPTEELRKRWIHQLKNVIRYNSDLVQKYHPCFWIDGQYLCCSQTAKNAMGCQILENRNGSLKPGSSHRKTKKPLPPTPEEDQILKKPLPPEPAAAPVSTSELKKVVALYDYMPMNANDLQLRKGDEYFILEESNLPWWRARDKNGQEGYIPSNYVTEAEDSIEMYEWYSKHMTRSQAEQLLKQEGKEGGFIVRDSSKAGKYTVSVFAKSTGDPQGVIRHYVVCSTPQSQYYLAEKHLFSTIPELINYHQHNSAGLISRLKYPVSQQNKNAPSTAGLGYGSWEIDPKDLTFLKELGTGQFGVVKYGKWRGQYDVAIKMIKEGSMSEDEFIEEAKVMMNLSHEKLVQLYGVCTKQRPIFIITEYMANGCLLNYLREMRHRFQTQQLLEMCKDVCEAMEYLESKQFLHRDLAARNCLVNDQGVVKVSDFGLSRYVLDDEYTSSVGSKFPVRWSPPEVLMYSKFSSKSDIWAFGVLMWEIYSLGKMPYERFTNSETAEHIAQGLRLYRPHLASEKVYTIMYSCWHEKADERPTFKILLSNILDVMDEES
Lab note: report pIC50 as minus log10 of the concentration in molar units, number only.

Substance smiles: CN1CCN(c2ccc(Nc3ncc(F)c(Nc4ccccc4C(=O)NN)n3)cc2)CC1
pIC50: 7.33

Now take the following compound into account.
(Q) Return reported pIC50; argument: CN1CCN(c2ccc(Nc3ncc(F)c(Nc4ccccc4C(=O)NN)n3)cc2F)CC1
(A) 7.08

----------
- Measurement notes: Metabolic stability in human liver microsome assessed as half life preincubated with compound for 5 mins followed by NADPH addition and measured upto 60 mins by LC-MS/MS analysis
- Format: ADME
- Measurement parameters: liver microsomes, time < 65 min
Property name: half-life (min)
Lab book: enter the figure in min, no units written.

Molecule: O=C(O)Cc1ccccc1Nc1c(Cl)cccc1Cl [DICLOFENAC]
Value: 5.44

Now take the following molecule into account.
(Q) Return reported half-life; argument: CN1CCN(c2ccc(Nc3ncc(F)c(Nc4ccccc4C(=O)NN)n3)cc2)CC1
(A) 41.5
